- measuredOn: Macaca fascicularis IL-36R extracellular domain expressed with a C-terminal myc-myc-hexahistidine tag (mfIL-36R-MMH) (Macaca fascicularis)
- test: SPR Biacore 4000, mAb captured on anti-hFc, 37C
quantityKind: kon (M⁻¹ s⁻¹)
Use M⁻¹ s⁻¹ as the unit, but write only the number.

Task item: Respond only with kon recorded for H4H14700P2 (antibody, human IgG4 S228P, kappa, V domains shown) VH: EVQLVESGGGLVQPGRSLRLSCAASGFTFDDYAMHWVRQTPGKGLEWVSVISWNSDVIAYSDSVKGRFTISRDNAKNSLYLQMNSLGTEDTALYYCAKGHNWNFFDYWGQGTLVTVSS VL: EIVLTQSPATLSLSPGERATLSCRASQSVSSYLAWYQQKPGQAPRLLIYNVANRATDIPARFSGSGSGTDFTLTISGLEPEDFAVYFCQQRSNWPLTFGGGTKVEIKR
Reply: 71400

Task item: Give me measured kon, please, for this binder: H4H14709P (antibody, human IgG4 S228P, kappa, V domains shown) VH: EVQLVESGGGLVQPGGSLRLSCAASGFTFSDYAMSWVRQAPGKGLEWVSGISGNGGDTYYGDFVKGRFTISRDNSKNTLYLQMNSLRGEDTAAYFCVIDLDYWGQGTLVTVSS VL: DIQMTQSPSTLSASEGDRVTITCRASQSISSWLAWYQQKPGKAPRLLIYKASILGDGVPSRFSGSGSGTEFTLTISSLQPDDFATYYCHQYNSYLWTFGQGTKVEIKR
Reply: 49100

Task item: For H4H14728P (antibody, human IgG4 S228P, kappa, V domains shown) VH: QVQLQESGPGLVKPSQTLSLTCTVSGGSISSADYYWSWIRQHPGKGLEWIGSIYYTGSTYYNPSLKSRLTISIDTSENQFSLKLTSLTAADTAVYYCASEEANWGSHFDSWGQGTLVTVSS VL: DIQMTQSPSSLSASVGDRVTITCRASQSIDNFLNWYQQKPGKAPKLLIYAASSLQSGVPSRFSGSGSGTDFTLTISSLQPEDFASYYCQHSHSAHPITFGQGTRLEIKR , write its kon.
Reply: 64800

Task item: Give the reported kon for this binder. H4H14708P2 (antibody, human IgG4 S228P, kappa, V domains shown) VH: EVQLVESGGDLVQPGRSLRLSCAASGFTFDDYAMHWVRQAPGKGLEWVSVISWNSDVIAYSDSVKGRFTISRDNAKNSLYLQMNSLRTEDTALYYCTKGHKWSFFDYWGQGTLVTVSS VL: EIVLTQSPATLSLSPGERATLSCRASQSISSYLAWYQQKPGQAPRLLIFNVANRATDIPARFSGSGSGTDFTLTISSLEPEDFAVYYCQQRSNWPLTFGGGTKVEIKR
Reply: 59600
